target: Cytochrome P450 3A4 (Homo sapiens)
Sequence (P08684 whole entry): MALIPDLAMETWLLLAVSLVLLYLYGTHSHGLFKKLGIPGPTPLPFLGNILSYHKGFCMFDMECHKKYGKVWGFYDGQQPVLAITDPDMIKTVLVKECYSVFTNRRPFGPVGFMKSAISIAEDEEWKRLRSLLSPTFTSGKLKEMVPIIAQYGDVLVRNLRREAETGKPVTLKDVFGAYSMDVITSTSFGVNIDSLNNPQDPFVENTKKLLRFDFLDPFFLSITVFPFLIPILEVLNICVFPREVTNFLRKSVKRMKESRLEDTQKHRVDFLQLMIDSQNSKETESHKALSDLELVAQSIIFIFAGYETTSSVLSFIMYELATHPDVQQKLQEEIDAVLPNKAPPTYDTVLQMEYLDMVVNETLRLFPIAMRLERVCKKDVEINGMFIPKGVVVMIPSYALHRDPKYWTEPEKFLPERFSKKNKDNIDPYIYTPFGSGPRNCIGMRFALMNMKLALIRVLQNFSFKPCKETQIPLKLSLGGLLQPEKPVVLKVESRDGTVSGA
pIC50: −log10 of the molar value.

{"Entry Smiles": "Cc1ccc(COc2ccc3c(c2)c(SC(C)(C)C)c(CC(C)(C)C(=O)O)n3Cc2ccc(-c3ccc(C)cn3)cc2)nc1", "Test System": "Cytochrome P450 3A4 (Homo sapiens)", "pIC50": 5.07}

====

target: Arachidonate 5-lipoxygenase-activating protein (Homo sapiens); experiment: Inhibition of FLAP in human peripheral leukocytes assessed as inhibition of calcium ionophore A23187-induced LTB4 production after 1 hr by ELISA in absence of human serum albumin; format: cell-based
Sequence (P20292 whole entry): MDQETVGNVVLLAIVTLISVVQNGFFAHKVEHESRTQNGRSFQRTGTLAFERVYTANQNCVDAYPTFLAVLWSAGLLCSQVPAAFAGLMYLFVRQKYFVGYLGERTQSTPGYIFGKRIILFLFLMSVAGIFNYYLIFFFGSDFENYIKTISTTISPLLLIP

{"Compound": "COc1ccc(-c2ccc(Cn3c(CC(C)(C)C(=O)O)c(SC(C)(C)C)c4cc(OCc5ccccn5)ccc43)cc2)cn1", "Test System": "Arachidonate 5-lipoxygenase-activating protein (Homo sapiens)", "Units Label": "nM", "IC50": 1.1}
{"Compound": "CC(C)c1ccc2c(c1)c(SC(C)(C)C)c(CC(C)(C)C(=O)O)n2Cc1ccc(Cl)cc1", "Test System": "Arachidonate 5-lipoxygenase-activating protein (Homo sapiens)", "Units Label": "nM", "IC50": 5.7}
{"Compound": "CCOc1ccc(-c2ccc(Cn3c(CC(C)(C)C(=O)O)c(SC(C)(C)C)c4cc(OCc5ccc(C)cn5)ccc43)cc2)cn1", "Test System": "Arachidonate 5-lipoxygenase-activating protein (Homo sapiens)", "Units Label": "nM", "IC50": 1}
{"Compound": "CC(C)(C)Sc1c(CC(C)(C)C(=O)O)n(Cc2ccc(Cl)cc2)c2ccc(OCc3ccc4ccccc4n3)cc12 [QUIFLAPON SODIUM]", "Test System": "Arachidonate 5-lipoxygenase-activating protein (Homo sapiens)", "Units Label": "nM", "IC50": 1}

====

target: UniProtKB P20292; test: Displacement of [3H]-3-[5-(pyrid-2-ylmethoxy)-3-tert-butylthio-1-benzylindol-2-yl]-2,2-dimethylpropionic acid from FLAP in human polymorphonuclear cell membranes after 1 hr by scintillation counting
pIC50: −log10 of the molar value.
Param threshold (8) applies to pIC50; output condition met when value >= threshold, condition not met when value < threshold.

{"Compound": "CCOc1ccc(-c2ccc(Cn3c(CC(C)(C)C(=O)O)c([S+]([O-])C(C)(C)C)c4cc(OCc5ccc(C)cn5)ccc43)cc2)cn1 (racemic)", "Category Label": "condition not met"}
{"Compound": "CCOc1ccc(-c2ccc(Cn3c(CC(C)(C)C(=O)O)c(SC(C)(C)C)c4cc(OCc5ccc(C)c[n+]5[O-])ccc43)cc2)cn1", "Category Label": "condition not met"}
{"Compound": "Cc1ccc(COc2ccc3c(c2)c(SC(C)(C)C)c(CC(C)(C)C(=O)O)n3Cc2ccc(-c3ccc(C(F)(F)F)nc3)cc2)nc1", "Category Label": "condition met"}
{"Compound": "CCOc1ccc(-c2ccc(Cn3c(CC(C)(C)C(=O)O)cc4cc(OCc5ccc(C)cn5)ccc43)cc2)cn1", "Category Label": "condition not met"}
{"Compound": "COc1ccc(-c2ccc(Cn3c(CC(C)(C)C(=O)O)c(SC(C)(C)C)c4cc(OCc5ccc(C(N)=O)cn5)ccc43)cc2)cn1", "Category Label": "condition not met"}
{"Compound": "COc1ccc(-c2ccc(Cn3c(CC(C)(C)C(=O)O)c(SC(C)(C)C)c4cc(OCc5ccc6cc(C)ccc6n5)ccc43)cc2)cn1", "Category Label": "condition not met"}
{"Compound": "COc1ccc(-c2ccc(Cn3c(CC(C)(C)C(=O)O)c(SC(C)(C)C)c4cc(OCc5cc(C)n(C)n5)ccc43)cc2)cn1", "Category Label": "condition not met"}
{"Compound": "COc1ccc(-c2ccc(Cn3c(CC(C)(C)C(=O)O)c(SC(C)(C)C)c4cc(OCc5ncccc5C)ccc43)cc2)cn1", "Category Label": "condition not met"}
{"Compound": "CC(C)(C)Sc1c(CC(C)(C)C(=O)O)n(Cc2ccc(Cl)cc2)c2ccc(OCc3ccc4ccccc4n3)cc12 [QUIFLAPON SODIUM]", "Category Label": "condition met"}
{"Compound": "COc1cccnc1-c1ccc(Cn2c(CC(C)(C)C(=O)O)c(SC(C)(C)C)c3cc(OCc4ccc(C)cn4)ccc32)cc1", "Category Label": "condition met"}
{"Compound": "COc1ccc(-c2ccc(Cn3c(CC(C)(C)C(=O)O)c(SC(C)(C)C)c4cc(OCc5ccc6ccc(F)cc6n5)ccc43)cc2)cn1", "Category Label": "condition not met"}
{"Compound": "COc1ccc(-c2ccc(Cn3c(CC(C)(C)C(=O)O)c(SC(C)(C)C)c4cc(OCc5cc6ccccc6[nH]5)ccc43)cc2)cn1", "Category Label": "condition not met"}

====

Biological target: Leukotriene C4 synthase (Homo sapiens, UniProt Q16873)
Sequence (Q16873 whole entry): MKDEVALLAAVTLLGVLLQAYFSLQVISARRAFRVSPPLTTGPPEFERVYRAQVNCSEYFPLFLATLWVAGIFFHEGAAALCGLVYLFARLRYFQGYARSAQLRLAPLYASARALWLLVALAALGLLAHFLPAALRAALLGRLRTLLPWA

{"Molecule": "CCOc1ccc(-c2ccc(Cn3c(CC(C)(C)C(=O)O)c(SC(C)(C)C)c4cc(OCc5ccc(C)cn5)ccc43)cc2)cn1 [FIBOFLAPON]", "Test System": "Leukotriene C4 synthase (Homo sapiens, UniProt Q16873)", "IC50, µM": 36}

====

molecular target: Arachidonate 5-lipoxygenase-activating protein (Homo sapiens); assay: Displacement of [3H]-3-[5-(pyrid-2-ylmethoxy)-3-tert-butylthio-1-benzylindol-2-yl]-2,2-dimethylpropionic acid from FLAP in human polymorphonuclear cell membranes after 1 hr by scintillation counting

{"Entry Smiles": "COc1cccc(-c2ccc(Cn3c(CC(C)(C)C(=O)O)c(SC(C)(C)C)c4cc(OCc5ccc(C)cn5)ccc43)cc2)n1", "Units Label": "nM", "IC50": 1.3}
{"Entry Smiles": "COc1ccc(-c2ccc(Cn3c(CC(C)(C)C(=O)O)c(SC(C)(C)C)c4cc(OCc5cn6ccccc6n5)ccc43)cc2)cn1", "Units Label": "nM", "IC50": 8.9}
{"Entry Smiles": "COc1ccc(-c2ccc(Cn3c(CC(C)(C)C(=O)O)c(SC(C)(C)C)c4cc(OCc5cnc(C)cn5)ccc43)cc2)cn1", "Units Label": "nM", "IC50": 5.4}
{"Entry Smiles": "Cc1ccc(COc2ccc3c(c2)c(SC(C)(C)C)c(CC(C)(C)C(=O)O)n3Cc2ccc(-c3cccc(C(F)(F)F)n3)cc2)nc1", "Units Label": "nM", "IC50": 1.8}
{"Entry Smiles": "CCOc1ccc(-c2ccc(Cn3c(CC(C)(C)C(=O)O)c(C(=O)CC(C)(C)C)c4cc(OCc5ccc(C)cn5)ccc43)cc2)cn1", "Units Label": "nM", "IC50": 29.3}
{"Entry Smiles": "COc1ccc(-c2ccc(Cn3c(CC(C)(C)C(=O)O)c(SC(C)(C)C)c4cc(OCc5cccc(C)n5)ccc43)cc2)cn1", "Units Label": "nM", "IC50": 3.1}
{"Entry Smiles": "COc1ccc(-c2ccc(Cn3c(CC(C)(C)C(=O)O)c(SC(C)(C)C)c4cc(OCc5ccc(C)c(C)n5)ccc43)cc2)cn1", "Units Label": "nM", "IC50": 3.4}

====

experiment: Half life in Beagle dog at 2 mg/kg, iv; format: ADME, organism-based, Canis lupus familiaris; parameters: dose 2 mg/kg, route intravenous; settings: in vivo

{"Entry Smiles": "CCOc1ccc(-c2ccc(Cn3c(CC(C)(C)C(=O)O)c(SC(C)(C)C)c4cc(OCc5ccc(C)cn5)ccc43)cc2)cn1", "half-life, h": 13}

====

molecular target: Arachidonate 5-lipoxygenase-activating protein (Homo sapiens); assay: Inhibition of FLAP in human whole blood assessed as inhibition of calcium ionophore A23187-induced LTB4 production preincubated for 15 mins by ELISA
Rule: IC50 below 500 nM gives criterion met. Equal to or above 500 nM gives criterion not met.

{"Compound": "COc1ccc(-c2ccc(Cn3c(CC(C)(C)C(=O)O)c(SC(C)(C)C)c4cc(OCc5ccccn5)ccc43)cc2)cn1", "Category Label": "criterion met"}
{"Compound": "COc1ccc(-c2ccc(Cn3c(CC(C)(C)C(=O)O)c(SC(C)(C)C)c4cc(OCc5cn6ccccc6n5)ccc43)cc2)cn1", "Category Label": "criterion not met"}
{"Compound": "Cc1ccc(COc2ccc3c(c2)c(SC(C)(C)C)c(CC(C)(C)C(=O)O)n3Cc2ccc(-c3cc(C(F)(F)F)ccn3)cc2)nc1", "Category Label": "criterion met"}
{"Compound": "CCOc1nc(-c2ccc(Cn3c(CC(C)(C)C(=O)O)c(SC(C)(C)C)c4cc(OCc5ccc(C)cn5)ccc43)cc2)cs1", "Category Label": "criterion met"}
{"Compound": "CCc1ccc(COc2ccc3c(c2)c(SC(C)(C)C)c(CC(C)(C)C(=O)O)n3Cc2ccc(-c3ccc(OC)nc3)cc2)nc1", "Category Label": "criterion not met"}
{"Compound": "COc1ccc(-c2ccc(Cn3c(CC(C)(C)C(=O)O)c(SC(C)(C)C)c4cc(OCc5cc(C)on5)ccc43)cc2)cn1", "Category Label": "criterion not met"}
{"Compound": "CCOc1cccc(-c2ccc(Cn3c(CC(C)(C)C(=O)O)c(SC(C)(C)C)c4cc(OCc5ccc(C)cn5)ccc43)cc2)n1", "Category Label": "criterion not met"}
{"Compound": "COc1ccc(-c2ccc(Cn3c(CC(C)(C)C(=O)O)c(SC(C)(C)C)c4cc(OCc5cnc6ccccc6n5)ccc43)cc2)cn1", "Category Label": "criterion not met"}
{"Compound": "CCOc1ccc(-c2ccc(Cn3c(CC(C)(C)C(=O)O)c([S+]([O-])C(C)(C)C)c4cc(OCc5ccc(C)cn5)ccc43)cc2)cn1 (racemic)", "Category Label": "criterion not met"}
{"Compound": "COc1ccc(-c2ccc(Cn3c(CC(C)(C)C(=O)O)c(SC(C)(C)C)c4cc(OCc5cc6ccccc6[nH]5)ccc43)cc2)cn1", "Category Label": "criterion not met"}
{"Compound": "COc1ccc(-c2ccc(Cn3c(CC(C)(C)C(=O)O)c(SC(C)(C)C)c4cc(OCc5ncc(C)cc5C)ccc43)cc2)cn1", "Category Label": "criterion not met"}
{"Compound": "CCOc1ccc(-c2ccc(Cn3c(CC(C)(C)C(=O)O)c(SC(C)(C)C)c4cc(OCc5ccc(C)c[n+]5[O-])ccc43)cc2)cn1", "Category Label": "criterion not met"}
{"Compound": "COc1ccc(COc2ccc3c(c2)c(SC(C)(C)C)c(CC(C)(C)C(=O)O)n3Cc2ccc(-c3ccc(OC)nc3)cc2)nc1", "Category Label": "criterion not met"}
{"Compound": "Cc1ccc(COc2ccc3c(c2)c(SC(C)(C)C)c(CC(C)(C)C(=O)O)n3Cc2ccc(-c3ccc(C(F)(F)F)nc3)cc2)nc1", "Category Label": "criterion met"}
{"Compound": "Cc1ccc(COc2ccc3c(c2)c(SC(C)(C)C)c(CC(C)(C)C(=O)O)n3Cc2ccc(-c3cncc(F)c3)cc2)nc1", "Category Label": "criterion met"}
